Source: patent US20140289906A1

experiment: 14C assay: 14CO2 capture from [14C]-carboxyl-labeled dicamba with IPTG-induced recombinant E. coli cells; conditions: IPTG-induced recombinant E. coli cells; 14CO2 from [14C]-carboxyl-labeled dicamba
reported-metric: Dicamba Decarboxylase Activity

85 (protein, listed as Maritimibacter alkaliphilus) MAADRKPGLVSVEEGFMIPEVVAELSRIAGGVPSMKSGPIAGPFMDDLLDIGKGRVARMDADGVAVQILALAAPGVQKFDPDTALALSRLTNDRLAEAIAAHPARFGGLAAAPPQAAREGAKELDRAITTLGLNGLIVNSHTNDLYLDDPSFWPLLEAAEALDVPVYLHPREPAAGIEGGLMAMTGFTVGWAYAVETGTHLLRMIAAGVFDRFPRLRIVLGHLGEMIPFMLDRIDNRYPFEMGVTGAKPLPRKPSDYFRDHVTVATSGMNFNAPMRAAIEVLGADKVMFAADYPMERQDEEVAKFAALDLTPDERKRIGEDNARRVFGL    Low
